# test_target: UniProt:P06239
# Sequence (P06239 whole entry, looked up): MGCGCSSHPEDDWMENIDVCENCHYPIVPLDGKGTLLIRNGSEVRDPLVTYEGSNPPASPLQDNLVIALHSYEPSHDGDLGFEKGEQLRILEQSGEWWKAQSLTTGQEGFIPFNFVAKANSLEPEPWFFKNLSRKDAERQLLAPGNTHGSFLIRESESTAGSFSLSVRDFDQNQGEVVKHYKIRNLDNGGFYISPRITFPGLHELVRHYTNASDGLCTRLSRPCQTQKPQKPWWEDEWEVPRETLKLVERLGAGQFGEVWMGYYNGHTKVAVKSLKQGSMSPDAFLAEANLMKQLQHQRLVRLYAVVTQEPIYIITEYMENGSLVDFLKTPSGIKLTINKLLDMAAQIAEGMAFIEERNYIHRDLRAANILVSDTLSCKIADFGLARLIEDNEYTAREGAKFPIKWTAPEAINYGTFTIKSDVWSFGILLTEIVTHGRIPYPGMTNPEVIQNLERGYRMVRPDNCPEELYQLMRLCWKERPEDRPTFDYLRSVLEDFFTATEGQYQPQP
# experiment_description: radiometric filter-binding kinase assay, Kinase HotSpot
# test_parameters: compound 0.5 µM; ATP 10 µM
Exercise: state measured residual activity for each of the compounds provided.
Write down the numeric answer in % and omit the unit.

I would be grateful if you could share the reported residual activity for COc1ccc2c(c1)/C(=C/c1cnc[nH]1)C(O)=N2 .
92

I would be grateful if you could share the reported residual activity for CN(C)CCCn1cc(C2=C(c3c[nH]c4ccccc34)C(=O)NC2=O)c2ccccc21 .
91.8

I would be grateful if you could share the reported residual activity for COc1ccc(Cl)cc1NC(=O)Nc1cc(C)nc2ccccc12 .
98.2

I would be grateful if you could share the reported residual activity for CC(C)(C)c1cc(C=C(C#N)C#N)cc(Br)c1O .
87.8

I would be grateful if you could share the reported residual activity for Ic1cccc(CSc2nnc(-c3ccncc3)o2)c1 .
98.5

I would be grateful if you could share the reported residual activity for CS(=O)(=O)CCNCc1ccc(-c2ccc3ncnc(Nc4ccc(OCc5cccc(F)c5)c(Cl)c4)c3c2)o1 .
94.2

I would be grateful if you could share the reported residual activity for O=C1c2ccccc2-c2nc3nnnn3nc21 .
70.5

I would be grateful if you could share the reported residual activity for COc1cc2ncnc(Nc3ccc(Oc4ccccc4)cc3)c2cc1OC .
4.72

I would be grateful if you could share the reported residual activity for CCCCc1c(-c2ccc(OC)cc2)[nH]c2nccnc12 .
85

I would be grateful if you could share the reported residual activity for Cc1cccc(-c2nc(C(C)(C)C)[nH]c2-c2ccc3c(c2)OCO3)n1 .
97.9

I would be grateful if you could share the reported residual activity for COc1ccc(C(=O)Nc2sc3c(c2C(N)=O)CCCC3)cc1OC .
93.8

I would be grateful if you could share the reported residual activity for COc1ccc2c(c1)c(C1=C(c3c[nH]c4ccccc34)C(=O)NC1=O)cn2CCCN(C)C .
93.6

I would be grateful if you could share the reported residual activity for COc1cc(Nc2c(C#N)cnc3cc(OCCCN4CCN(C)CC4)c(OC)cc23)c(Cl)cc1Cl .
1.88

I would be grateful if you could share the reported residual activity for CN(C)S(=O)(=O)c1ccc2c(c1)/C(=C/c1cc3c([nH]1)CCCC3)C(=O)N2 .
34.7

I would be grateful if you could share the reported residual activity for Fc1ccc(-c2nc3n(c2-c2ccncc2)CCS3)cc1 .
96.2

I would be grateful if you could share the reported residual activity for N#Cc1c[nH]c2c[nH]/c(=N\Cc3cccnc3)cc2/c1=N\c1ccc(F)c(Cl)c1 .
97.3
